Form field: Ki (one value per entry).
Biological target: NK1 receptor (Homo sapiens)
Test: neurokinin receptor binding assay, NK1 (Ki)
Conditions: read-out: Ki (NK1)
Numbers only here, please. The scale is nM.

Please review the entries below; each comes with its answer.
{"Molecule": "CONC(=O)CON=C(CN(C)C(=O)c1cc(C)cc(C)c1)C(CCN1CCC(N2CCCC(CC(=O)N(C)C)C2=O)CC1)c1ccc(Cl)c(Cl)c1 (stereo not drawn) [Example 19E]", "Unit text": "nM", "Ki": 0.6}
{"Molecule": "CNC(=O)CC1CCCN(C2CCN(CCC(C(CN(C)C(=O)c3cc(C)cc(C)c3)=NOC)c3ccc(Cl)c(Cl)c3)CC2)C1=O (stereo not drawn)", "Unit text": "nM", "Ki": 0.6}
{"Molecule": "CON=C(CN(C)C(=O)c1cc(Cl)cc(Cl)c1)[C@H](CCN1CCC(N2CCC[C@H](CC(=O)N(C)C)C2=O)CC1)c1ccc(Cl)c(Cl)c1 [Example 13A]", "Unit text": "nM", "Ki": 0.8}
{"Molecule": "Cc1cc(C)cc(C(=O)N(C)CC(=NOCC(=O)Nc2nncs2)C(CCN2CCC(N3CCCC(CC(=O)N(C)C)C3=O)CC2)c2ccc(Cl)c(Cl)c2)c1 (stereo not drawn) [Example 19D]", "Unit text": "nM", "Ki": 0.9}
{"Molecule": "CNC(=O)CC1CCCN(C2CCN(CCC(C(CN(C)C(=O)c3cc(Cl)cc(Cl)c3)=NOCC(N)=NO)c3ccc(Cl)c(Cl)c3)CC2)C1=O (stereo not drawn) [Example 15F]", "Unit text": "nM", "Ki": 0.4}

The reported NK1 receptor (Homo sapiens) Ki of CON=C(CN(C)C(=O)c1cc(Cl)cc(Cl)c1)C(CCN1CCC(N2CCCC(CC(=O)N3CC(O)C3)C2=O)CC1)c1ccc(Cl)c(Cl)c1 (stereo not drawn) [Example 12E] is 0.4

###

Molecular target: NK1 receptor (Homo sapiens, UniProt P25103)
Sequence (P25103 whole entry): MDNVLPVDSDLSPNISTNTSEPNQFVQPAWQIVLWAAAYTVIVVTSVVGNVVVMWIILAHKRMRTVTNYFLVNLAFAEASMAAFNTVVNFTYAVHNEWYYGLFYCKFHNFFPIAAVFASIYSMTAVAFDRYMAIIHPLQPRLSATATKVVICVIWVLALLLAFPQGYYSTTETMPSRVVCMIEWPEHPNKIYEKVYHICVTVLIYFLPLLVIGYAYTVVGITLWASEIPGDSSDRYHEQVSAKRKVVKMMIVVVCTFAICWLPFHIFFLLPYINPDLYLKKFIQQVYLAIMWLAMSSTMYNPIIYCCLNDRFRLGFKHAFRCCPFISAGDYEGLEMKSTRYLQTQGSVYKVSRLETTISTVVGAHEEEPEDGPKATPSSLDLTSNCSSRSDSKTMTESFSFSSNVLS
Assay: neurokinin receptor binding assay, NK1 (Ki)
Conditions: read-out: Ki (NK1)
Ki by entry:
Number in pM, nothing else.

Sample answers from the record:
{"Compound": "CON=C(CN(C)C(=O)c1cc(C)nc(Cl)c1)C(CCN1CCC(O)(c2ccccc2)CC1)c1ccc(Cl)c(Cl)c1 (stereo not shown) [Example 30A]", "Attribute measured": "Ki", "Unit text": "pM", "Observed measurement": 1400}
{"Compound": "CON=C(CN(C)C(=O)c1cc(Cl)cc(Cl)c1)C(CCN1CCC(c2ccccc2[S+](C)[O-])CC1)c1ccc(Cl)c(Cl)c1 (stereo not shown) [Example 36]", "Attribute measured": "Ki", "Unit text": "pM", "Observed measurement": 800}
{"Compound": "CNC(=O)CC1CCCN(C2CCN(CCC(C(CN(C)C(=O)c3cc(Cl)cc(Cl)c3)=NOCCCS(=O)(=O)O)c3ccc(Cl)c(Cl)c3)CC2)C1=O (stereo not shown) [Example 15H]", "Attribute measured": "Ki", "Unit text": "pM", "Observed measurement": 200}

Entry CNC(=O)CC1CCCN(C2CCN(CCC(C(CN(C)C(=O)c3cc(Cl)cc(Cl)c3)=NO)c3ccc(Cl)c(Cl)c3)CC2)C1=O (stereo not shown) [Example 15A] ; Ki = 200

Record CON=C(N)CON=C(CN(C)C(=O)c1cc(OC)c(OC)c(OC)c1)C(CCN1CCC(O)(c2ccccc2)CC1)c1ccc(Cl)c(Cl)c1 (stereo not shown) [Example 37] , field Ki: 700

get_value(item= CNC(=O)CC1CCCN(C2CCN(CCC(C(CN(C)C(=O)c3cc(Cl)cc(Cl)c3)=NOCC(=O)NCC#N)c3ccc(Cl)c(Cl)c3)CC2)C1=O (stereo not shown) [Example 15I] , readout=Ki) returns 800

For CN(CC(=NOCF)C(CCN1CCC(N2CCCCC2=O)CC1)c1ccc(Cl)c(Cl)c1)C(=O)c1cc(Cl)cc(Cl)c1 (stereo not shown) [Example 17S] the compound record lists Ki as 800

GET /value?item= CN(CC(=NO)C(CCN1CCC(N2CCCCC2=O)CC1)c1ccc(Cl)c(Cl)c1)C(=O)c1cc(Cl)cc(Cl)c1 (stereo not shown) [Example 17A] &field=Ki returns 500

// field: Ki; key: CON=C(CN(C)C(=O)c1cc(Cl)cc(Cl)c1)C(CCN1CCC(N2CCCC(CC(=O)N3CCOCC3)C2=O)CC1)c1ccc(Cl)c(Cl)c1 (stereo not shown) [Example 12K] ; value = 900

Field Ki (entry Cc1cc(C)cc(C(=O)N(C)CC(=NOCC(N)=NO)C(CCN2CCC(N3CCCCC3=O)CC2)c2ccc(Cl)c(Cl)c2)c1 (stereo not shown) [Example 18E] ) reads 400

So, CNC(=O)CC1CCCN(C2CCN(CCC(C(CN(C)C(=O)c3cc(Cl)cc(Cl)c3)=NOCC(=O)NCS(=O)(=O)O)c3ccc(Cl)c(Cl)c3)CC2)C1=O (stereo not shown) [Example 15J] ? Its Ki was 700

Looking up CON=C(CN(C)C(=O)c1cc(C)cc(Cl)c1)C(CCN1CCC(N2CCCC(CC(=O)N(C)C)C2=O)CC1)c1ccc(Cl)c(Cl)c1 (stereo not shown) [Example 27] , I see its Ki listed as 700

Value of Ki reported for the compound CNC(=O)CON=C(CN(C)C(=O)c1cc(Cl)cc(Cl)c1)C(CCN1CCC(N2CCCC(CC(=O)NC)C2=O)CC1)c1ccc(Cl)c(Cl)c1 (stereo not shown) [Example 15E] is 500
